molecular target: Full length human recombinant HDAC11 (Homo sapiens (Human), UniProt Q96DB2); assay: Enzymatic HDAC11 assay, electrophoretic mobility shift; conditions: substrate FAM-RHKK(tri-fluor-Ac)-NH2, read-out: HDAC11 IC50 Range
Sequence (Q96DB2 whole entry): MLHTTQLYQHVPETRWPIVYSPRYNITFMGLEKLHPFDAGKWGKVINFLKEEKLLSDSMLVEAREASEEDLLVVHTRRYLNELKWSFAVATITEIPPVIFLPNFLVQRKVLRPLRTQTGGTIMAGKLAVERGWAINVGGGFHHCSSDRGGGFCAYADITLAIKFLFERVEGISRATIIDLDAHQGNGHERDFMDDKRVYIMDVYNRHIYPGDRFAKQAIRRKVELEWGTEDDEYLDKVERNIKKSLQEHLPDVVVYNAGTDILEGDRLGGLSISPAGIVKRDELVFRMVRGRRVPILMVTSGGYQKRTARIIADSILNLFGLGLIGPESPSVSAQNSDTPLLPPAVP
Field: IC50. Provide a value for each of the molecules that follow.

molecule	recorded_value
O=C(NO)c1cccc2c1CC1(CCN(Cc3csc(-c4ccccc4)n3)C1=O)C2 (stereo not shown)	> 1000 nM
O=C(NO)c1cccc2c1CCC1(CCN(c3cccc(C(F)(F)F)c3)C1=O)C2 (stereo not shown)	500 to 1000 nM
O=C(NO)c1cccc2c1CC1(CCN(CCN3CCOCC3)C1=O)C2 (stereo not shown)	> 1000 nM
O=C(NO)c1cccc2c1CC1(CCN(Cc3ccc(C(F)(F)F)nc3)C1=O)C2 (stereo not shown)	> 1000 nM
O=C(NO)c1cccc2c1CCC1(CCN(c3ccccc3)CC1)O2	> 1000 nM
O=C(NO)c1cccc2c1CC1(CCN(Cc3cccc(F)c3)C1=O)C2 (stereo not shown)	> 1000 nM

Batch request: IC50 for each of the following molecules.
1. O=C(NO)c1cccc2c1CC1(CCN(Cc3ccccc3-c3ccccc3)C1=O)C2 (stereo not shown)
2. O=C(NO)c1cccc2c1CC1(CCN(Cc3ccc(-c4ccccc4)cc3)C1=O)C2 (stereo not shown)
3. O=C(NO)c1cccc2c1CC1(CCN(Cc3ccccc3)CC1)C2=O
4. O=C(NO)c1cccc2c1CC1(CCN(CCCc3ccccc3)C1=O)C2 (stereo not shown)
5. Cc1noc(C)c1CN1CCC2(Cc3cccc(C(=O)NO)c3C2)C1=O (stereo not shown)

## Result
["< 500 nM", "< 500 nM", "> 1000 nM", "> 1000 nM", "> 1000 nM"]

Batch request: IC50 for each of the following molecules.
1. O=C(NO)c1cccc2c1CC1(CCN(Cc3ccc(F)cc3)C1=O)C2 (stereo not shown)
2. O=C(NO)c1cccc2c1CC1(CCN(Cc3ccc(C(F)(F)F)c(F)c3)C1=O)C2 (stereo not shown)
3. O=C(NO)c1cccc2c1CCC1(CCN(c3ccccc3C(F)(F)F)C1=O)C2 (stereo not shown)
4. O=C(NO)c1cccc2c1CC1(CC2)CCN(c2cccc(C(F)(F)F)c2)C1=O (stereo not shown)
5. O=C(NO)c1cccc2c1CC1(CC2)CCN(Cc2ccc(C(F)(F)F)cc2)C1=O (stereo not shown)
6. O=C(NO)c1cccc2c1CC1(CCN(CC3CCCCC3)C1=O)C2 (stereo not shown)
7. O=C(NO)c1cccc2c1OC1(CC2)CCN(S(=O)(=O)C2CCCCC2)CC1

## Result
500 to 1000 nM
< 500 nM
> 1000 nM
> 1000 nM
500 to 1000 nM
> 1000 nM
> 1000 nM

## Task Tell me the measured IC50 of O=C(NO)c1cccc2c1CC1(CCN(CC3CCC3)C1=O)C2 (stereo not shown) , please.
## Result > 1000 nM

###

target: Full length human recombinant HDAC11 (Homo sapiens (Human)); assay: Enzymatic HDAC11 assay, electrophoretic mobility shift; details: substrate FAM-RHKK(tri-fluor-Ac)-NH2, read-out: HDAC11 IC50 Range
pIC50: −log10 of the molar value.
measure_name: pIC50

molecule	measure_name	recorded_value
O=C(NO)c1cccc2c1CC1(CCN(Cc3noc(C4CCOCC4)n3)C1=O)C2 (stereo not drawn) [II-49]	pIC50	< 6.00
O=C(NO)c1cccc2c1CC1(CCN(Cc3cccc(Br)c3)C1=O)C2 (stereo not drawn) [II-33]	pIC50	> 6.30
CC1(C(=O)N2CCC3(CCc4cccc(C(=O)NO)c4O3)CC2)CCOCC1 [II-77]	pIC50	< 6.00
O=C(NO)c1cccc2c1CC1(CCN(Cc3ccc(C(F)(F)F)cc3)C1)C2 (stereo not drawn) [II-56]	pIC50	6.00 to 6.30
O=C(NO)c1cccc2c1CC1(CCN(Cc3cc(Cl)ccc3Cl)C1=O)C2 (stereo not drawn) [II-45]	pIC50	6.00 to 6.30

API: the following record is the query input.
## Task Tell me the measured pIC50 of O=C(NO)c1cccc2c1CC1(CCN(Cc3c(Cl)cccc3Cl)C1=O)C2 (stereo not drawn) [II-21] , please.
## Result 6.00 to 6.30
